target: CD276, Q5ZPR3
Sequence (Q5ZPR3 whole entry): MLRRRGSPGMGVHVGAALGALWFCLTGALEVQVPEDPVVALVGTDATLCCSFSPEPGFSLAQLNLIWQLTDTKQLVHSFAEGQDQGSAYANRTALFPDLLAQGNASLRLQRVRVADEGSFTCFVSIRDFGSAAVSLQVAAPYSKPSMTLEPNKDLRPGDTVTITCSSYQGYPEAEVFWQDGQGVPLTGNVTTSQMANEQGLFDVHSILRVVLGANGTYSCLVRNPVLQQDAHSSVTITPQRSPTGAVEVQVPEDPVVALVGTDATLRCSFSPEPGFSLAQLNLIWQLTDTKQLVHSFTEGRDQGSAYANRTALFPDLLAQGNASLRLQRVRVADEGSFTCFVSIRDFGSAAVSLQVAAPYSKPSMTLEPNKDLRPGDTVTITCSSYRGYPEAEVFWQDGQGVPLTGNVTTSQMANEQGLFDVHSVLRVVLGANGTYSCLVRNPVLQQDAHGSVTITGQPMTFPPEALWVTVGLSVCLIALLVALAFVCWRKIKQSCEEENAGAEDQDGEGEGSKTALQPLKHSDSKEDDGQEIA

{"columns": ["BINDER", "binding in a display sort"],
 "data": [
  ["design_616_e8336982-fa4d-4d7c-b06f-9007953e1994_361_dldesign_0_cycle1_af2pred (protein) AAAQAKALAAQAKAAIESGSLSPGEVARLAVKAGAYAMAAANADPSIAAEMQALAQDLFAKVDEYIAKVAA", "not found (inactive)"],
  ["design_623_6e2e8b1f-5d9a-4413-9869-27a184816b12_1750_dldesign_0_cycle1_af2pred (protein) DLLEQARIAANSTVALKKTTKEILAKSTPESAEKVAEVAVELAKQAKELGKKAGTKEAKELAKKAEKAAKEAVEAVKKAKA", "not found (inactive)"],
  ["design_391_ca6baf5d-2451-47ba-bffc-fc886679966a_2108_dldesign_0_cycle1_af2pred (protein) TAAAALAAAKAALATAKAAGLPARYLEMAEAALAVATSAAASGDPAHQKAALAFSSAVLAAIEAEAAKRA", "not found (inactive)"]
]}
